Cited source for all entries: paper PMC6010117

Parameter 'readout' = pKi; parameter 'system' = hCA I (Homo sapiens, UniProt P00915).
Sequence (P00915 2-261): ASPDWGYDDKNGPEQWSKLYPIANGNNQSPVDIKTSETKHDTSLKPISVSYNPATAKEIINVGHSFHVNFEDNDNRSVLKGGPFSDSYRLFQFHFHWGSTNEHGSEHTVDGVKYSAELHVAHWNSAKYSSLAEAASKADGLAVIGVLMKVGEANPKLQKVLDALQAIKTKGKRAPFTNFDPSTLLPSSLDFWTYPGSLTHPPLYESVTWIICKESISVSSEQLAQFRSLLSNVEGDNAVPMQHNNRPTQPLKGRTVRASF
pKi (log units): -log10 of the concentration in mol/L.

Guide cases for pKi, answers given:
Hi! What's the reported pKi for CN1C(=O)C(=C2C(=O)Nc3c(F)cccc32)SC1=Nc1ccc(S(N)(=O)=O)cc1 [m, EMAC 10020 m] on hCA I (Homo sapiens, UniProt P00915)?
7.35

Hi! What's the reported pKi for CN1C(=O)C(=C2C(=O)Nc3ccc(C(F)(F)F)cc32)SC1=Nc1ccc(S(N)(=O)=O)cc1 [n, EMAC 10020 n] on hCA I (Homo sapiens, UniProt P00915)?
6.02

Hi! What's the reported pKi for CN1C(=O)C(=C2C(=O)Nc3ccc(Cl)cc32)SC1=Nc1ccc(S(N)(=O)=O)cc1 [c, EMAC 10020 c] on hCA I (Homo sapiens, UniProt P00915)?
6.02

As a next step, examine the compound that follows.
Hi! What's the reported pKi for CN1C(=O)C(=C2C(=O)Nc3ccc(F)cc32)SC1=Nc1ccc(S(N)(=O)=O)cc1 [d, EMAC 10020 d] on hCA I (Homo sapiens, UniProt P00915)?
7.30
